# assay-explanation: MTT cell viability assay on SH-SY5Y neuroblastoma cells
# Assay type: cell-based, human
# condition-set: human, SH-SY5Y neuroblastoma cells, SHSY-5Y, PTX 10 µg/mL alone
experimental-readout: viability at 24 h, 10 µg/mL (%)
Output spec: scalar in %, unitless text.

Documented viability at 24 h, 10 µg/mL of CC(=O)O[C@H]1C(=O)[C@@]2(C)[C@H]([C@H](OC(=O)c3ccccc3)[C@]3(O)C[C@H](OC(=O)[C@H](O)[C@@H](NC(=O)c4ccccc4)c4ccccc4)C(C)=C1C3(C)C)[C@]1(OC(C)=O)CO[C@@H]1C[C@@H]2O [PTX, Paclitaxel] : 37

Data credit: paper PMC10820816
